- system: MAGE-A11:PCF11 interaction (GST-MAGE-A11 and FAM-PCF11_4) (Homo sapiens)
- Construct: GST-MAGE-A11 MHD (human MAGE-A11 MHD amino acid 218-429); made in house; host or cells: E. coli BL21(DE3)
- Sequence (P43364 218-429): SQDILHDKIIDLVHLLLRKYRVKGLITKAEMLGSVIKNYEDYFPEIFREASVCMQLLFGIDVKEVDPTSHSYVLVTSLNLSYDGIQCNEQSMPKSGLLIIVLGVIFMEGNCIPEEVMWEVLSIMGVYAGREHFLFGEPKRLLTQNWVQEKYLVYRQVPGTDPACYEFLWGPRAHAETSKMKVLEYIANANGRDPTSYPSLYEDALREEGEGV
- assay.explanation: TR-FRET primary / single point screen at 15 µM
- Type: binding
- stated.conditions: single point TR-FRET screening of quinoline compounds against MAGE-A11:PCF11; 15 µM
The following compounds are listed with their measured percent inhibition (TR-FRET) values.
measurement.name: percent inhibition (TR-FRET)

> print(dat)
                                    compound  assay.value
 1  Clc1ccc2c(NCCCNCc3ccc[nH]3)ccnc2c1 [SJ000575192]      52.9917
 2  Clc1ccc2c(NCCCN(Cc3ccccc3)Cc3ccncc3)ccnc2c1 [SJ000312679]       -5.573
 3  CCCN(CCCNc1ccnc2cc(Cl)ccc12)Cc1cnn(C)c1 [SJ000523009]      10.0613
 4  Cc1cccc(CN(CCCNc2ccnc3cc(Cl)ccc23)Cc2ccccc2)c1 [SJ000361183]         6.02
 5  CCCN(CCCNc1c2ccc(Cl)cc2nc2ccc(OC)cc12)Cc1nc(C)cs1 [SJ000522966]      -82.146
 6  CCCN(CCCNc1ccnc2cc(Cl)ccc12)CC1CCOC1 (stereo not shown) [SJ000523016]       9.6638
 7  CCCN(CCCNc1c2ccc(Cl)cc2nc2ccc(OC)cc12)Cc1cc(C(F)(F)F)ccc1OC [SJ000522985]     -46.0179
 8  CCOC(=O)c1cnc2ccc(C(=O)OC)cc2c1NCCCN1CCOCC1 [SJ000279665]      10.7073
 9  FC(F)(F)c1ccc2c(NCCCNCc3cc4ccccc4o3)ccnc2c1 [SJ000521057]      27.4843
10  CCCN(CCCNc1c2ccc(Cl)cc2nc2ccc(OC)cc12)Cc1ccc(Cl)c(C(F)(F)F)c1 [SJ000522974]      16.3588
11  COc1ccc2nc3cc(Cl)ccc3c(NCCCNCc3ccc(N(C)C)c4ccccc34)c2c1 [SJ000523028]       -1.532
12  CCCN(CCCNc1ccnc2cc(Cl)ccc12)Cc1ccccc1N [SJ000522747]      15.4273
13  FC(F)(F)c1ccc2c(NCCCNCc3cccnc3)ccnc2c1 [SJ000521042]      15.0359
14  O=[N+]([O-])c1ccc(CNCCCNc2ccnc3cc(Cl)ccc23)s1 [SJ000520912]        6.284
15  Clc1ccc2c(NCCCN(CCOCc3ccccc3)Cc3ccccc3)ccnc2c1 [SJ000357583]      13.2411
16  Clc1ccc2c(NCCCNCc3ccoc3)ccnc2c1 [SJ000520913]       -11.15
17  CCOC(=O)c1cnc2c(C)cccc2c1NCCCN1CCOCC1 [SJ000279636]        3.353
18  CCCN(CCCNc1ccnc2cc(Cl)ccc12)Cc1scnc1C [SJ000523005]        11.85
19  CCCN(CCCNc1ccnc2cc(Cl)ccc12)CCC(C)c1ccccc1 (stereo not shown) [SJ000357573]      24.9781
